Target: T1, 4H3718-AA
T1 chain: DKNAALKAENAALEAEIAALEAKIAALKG
Assay: two-hybrid library CCmax;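 also: natural log of median RNA to DNA barcode read ratio; higher means stronger binding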
Details: mean of both orientations
interaction score values by entry
metric.name: interaction score

{"binder": "DKNAALKAEIAALEAKIAALKAKNAALEG [4H3631-AA]", "metric.name": "interaction score", "endpoint.value": 0.0628}
{"binder": "DEIAALEAKIAALKAENAALEAENAALKG [4H340-AA]", "metric.name": "interaction score", "endpoint.value": -0.983}
{"binder": "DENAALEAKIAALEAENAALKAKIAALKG [4H1310-AA]", "metric.name": "interaction score", "endpoint.value": -1.04}
{"binder": "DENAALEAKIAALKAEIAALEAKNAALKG [4H1352-AA]", "metric.name": "interaction score", "endpoint.value": 0.714}
{"binder": "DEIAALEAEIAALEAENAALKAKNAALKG [4H32-AA]", "metric.name": "interaction score", "endpoint.value": -0.924}
{"binder": "DKNAALKAEIAALEAEIAALEAENAALKG [4H3588-AA]", "metric.name": "interaction score", "endpoint.value": 0.71}
{"binder": "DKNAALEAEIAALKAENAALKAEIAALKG [4H3162-AA]", "metric.name": "interaction score", "endpoint.value": -1.43}
{"binder": "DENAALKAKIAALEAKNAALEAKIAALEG [4H1845-AA]", "metric.name": "interaction score", "endpoint.value": -1.65}
{"binder": "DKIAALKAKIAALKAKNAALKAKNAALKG [4H2944-AA]", "metric.name": "interaction score", "endpoint.value": -0.87}
{"binder": "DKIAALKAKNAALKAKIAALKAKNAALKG [4H3056-AA]", "metric.name": "interaction score", "endpoint.value": -0.69}
{"binder": "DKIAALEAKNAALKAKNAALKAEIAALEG [4H2553-AA]", "metric.name": "interaction score", "endpoint.value": 1.12}
{"binder": "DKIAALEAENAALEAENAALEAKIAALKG [4H2198-AA]", "metric.name": "interaction score", "endpoint.value": -0.339}
{"binder": "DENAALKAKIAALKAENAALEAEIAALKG [4H1874-AA]", "metric.name": "interaction score", "endpoint.value": -1.5}
{"binder": "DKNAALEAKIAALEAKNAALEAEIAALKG [4H3378-AA]", "metric.name": "interaction score", "endpoint.value": -1.79}
{"binder": "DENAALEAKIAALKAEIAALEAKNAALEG [4H1351-AA]", "metric.name": "interaction score", "endpoint.value": 0.664}
{"binder": "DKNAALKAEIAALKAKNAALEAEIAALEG [4H3697-AA]", "metric.name": "interaction score", "endpoint.value": -0.817}

Value source: paper PMC10397247
